molecular target: human erythrocyte AChE (Homo sapiens); construct: We used human erythrocyte AChE, equine serum BChE, and porcine liver CaE; purchased Sigma-Aldrich (Germany); host or cells: human erythrocyte; assay: biochemical
Sequence (P22303 32-617 isoform P22303-2 limits assumed): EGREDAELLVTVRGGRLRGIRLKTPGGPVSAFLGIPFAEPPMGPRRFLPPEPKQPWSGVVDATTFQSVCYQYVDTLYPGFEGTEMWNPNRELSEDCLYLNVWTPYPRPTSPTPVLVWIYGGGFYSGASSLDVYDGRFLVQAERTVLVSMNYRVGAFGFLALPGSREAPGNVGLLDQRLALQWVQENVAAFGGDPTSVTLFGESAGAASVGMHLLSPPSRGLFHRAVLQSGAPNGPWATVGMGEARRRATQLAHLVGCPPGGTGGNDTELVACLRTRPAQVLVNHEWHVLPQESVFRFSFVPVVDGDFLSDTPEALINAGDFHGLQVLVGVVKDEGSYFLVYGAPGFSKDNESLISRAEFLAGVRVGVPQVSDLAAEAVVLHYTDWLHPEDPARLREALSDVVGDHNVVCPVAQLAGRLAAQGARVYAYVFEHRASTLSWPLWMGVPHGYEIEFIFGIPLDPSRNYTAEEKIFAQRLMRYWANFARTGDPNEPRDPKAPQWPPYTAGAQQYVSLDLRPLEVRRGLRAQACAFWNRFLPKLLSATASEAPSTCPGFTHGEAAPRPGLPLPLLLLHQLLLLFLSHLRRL
pIC50: −log10 of the molar value.
observation-type: pIC50

## Input Item: c1ccc2c(c1)[nH]c1ccccc12 Test system: human erythrocyte AChE (Homo sapiens) Read-out: pIC50 Value: ?
## Output < 4.70
